- System: Candida albicans
value.kind: MIC (µg/mL)

>>> value_measured("CCCCCCCCCCCCNC(=O)CCCCCN(C)C")
100
>>> value_measured("CCCCCCCCCCCCNC(=O)CCCCCN [Product D, 6-aminocapronic acid-dodecylamide]")
50
>>> value_measured("CCCCCCCCCCCCNC(=O)CN.Cl [Product A, N-glycyl-dodecylamine hydrochloride]")
50
>>> value_measured("CCCCCCCCCCNC(=O)CCN [Product B, 3-aminopropionic acid-decylamide]")
100
>>> value_measured("CCCCCCCCCCCCCCNC(=O)CCCCCN")
50
>>> value_measured("CCCCCCCCCCCCNC(=O)CCCCCNC(=O)CCCCCN")
250
